- assay-text: JHH-DIPG-1 glioma cell viability, MIPE5.0 library, CellTiter-Glo luminescence, qHTS (AID 1347067);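 note: cells exposed to compound for 48 hours before readout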
- measurement-conditions: JHH-DIPG-1 glioma viability, CellTiter-Glo ATP luminescence
Inconclusive results are not listed. Calls of active or inactive are those of the source. No cut-off is given here; in the data, nearly all actives have AC50 up to about 26 µM.

| molecule | AC50 |
| --- | --- |
| COc1cc2c(cc1OC)CN(CCc1ccc(-n3nnc(-c4cc(OC)c(OC)cc4NC(=O)c4cc(=O)c5ccccc5o4)n3)cc1)CC2 | inactive |
| CCn1cc(-c2ccnc3[nH]c(-c4cccc(CN(C)C)c4)cc23)c(-c2ccc(NC(=O)N(C)C)cc2)n1 | 11.8 µM (active) |
| CN(C)c1cccc(-c2c3c(=O)n(-c4ccccc4Cl)[nH]c3cc(=O)n2C)c1 | inactive |
| C[C@H]1CN(C2COC2)CCN1c1ccc(Nc2cc(-c3ccnc(N4CCn5c(cc6c5CC(C)(C)C6)C4=O)c3CO)cn(C)c2=O)nc1 | inactive |
| CC1(C)CC(=O)c2c(C(F)(F)F)nn(-c3ccc(C(N)=O)c(NC4CCC(O)CC4)c3)c2C1 (stereo unspecified) | 0.118 µM (active) |
| COc1ccccc1[C@H](c1cccc2ccccc12)[C@@](C)(C#N)C(=O)N1CCC(c2cccc(C(F)(F)F)c2)CC1 | inactive |
| COc1cc(C(=O)NC2CCN(C)CC2)ccc1Nc1ncc2c(n1)N(C1CCCC1)CCC(=O)N2C(C)C | 23.5 µM (active) |
| COc1ccc(-c2cc(C(O)C3CCCCN3)c3ccccc3n2)cc1 (stereo unspecified) | 7.42 µM (active) |
| Clc1ccc(COC(Cn2ccnc2)c2ccc(Cl)cc2Cl)c(Cl)c1 (stereo unspecified) | 20.9 µM (active) |
| O=C(CCCCCCC(=O)Nc1ccc([C@H]2O[C@@H](CSc3nc(-c4ccccc4)c(-c4ccccc4)o3)C[C@@H](c3ccc(CO)cc3)O2)cc1)NO | inactive |
| CC(=O)OC[C@@H]1O[C@@H](n2ccc(=O)[nH]c2=O)[C@H](OC(C)=O)[C@@H]1OC(C)=O | inactive |
| CC(C)(O)C1CCC(Nc2ccc3ncc(-c4cccc(C(F)(F)F)c4)n3n2)CC1 (stereo unspecified) | 10.5 µM (active) |
| NC1=N[C@@]2(c3cc(NC(=O)c4ccc(F)cn4)ccc3F)COC[C@H]2CS1 | inactive |
| CNC(=O)c1c(-c2ccc(F)cc2)oc2cc(N(CCO)S(C)(=O)=O)c(C3CC3)cc12 | inactive |
| NC(=O)[C@@H](CCC(F)(F)F)N(Cc1ccc(-c2ncon2)cc1F)S(=O)(=O)c1ccc(Cl)cc1 | inactive |
| Cc1ccnc(NS(=O)(=O)c2ccc(NC(=O)Nc3ccc(S(=O)(=O)Nc4nccc(C)n4)cc3)cc2)n1 | inactive |
| CCC[C@H](Nc1nc(-c2ccc(NC(=O)NCC)c(OC)c2)ncc1C)c1cccnc1 | 0.132 µM (active) |
| Cc1nnn(C)c1-c1cnc2c3ccc(C(C)(C)O)cc3n([C@H](c3ccccc3)C3CCOCC3)c2c1 | 8.33 µM (active) |
| CC1=C(c2ccc(O)cc2)[C@H](c2ccc(OCCN3CCCCC3)cc2)Oc2cc(O)ccc21 | inactive |
| COc1ccc(S(=O)(=O)Nc2cc(-c3csc(C#N)c3)ccc2C)cc1 | 0.0934 µM (active) |
| NC(=O)Nc1cc(-c2cccc(F)c2)sc1C(=O)N[C@H]1CCCNC1 | 3.32 µM (active) |
| Cc1cc(Nc2nc(N[C@@H](C)c3ncc(F)cn3)ncc2Cl)n[nH]1 | 0.934 µM (active) |
| CCCNC(=O)c1cn2ncnc(Nc3cc(C(=O)NC4CC4)ccc3C)c2c1C | inactive |
| COc1cc2nccc(Oc3ccc(NC(=O)Nc4cc(C)on4)c(Cl)c3)c2cc1OC | 14.8 µM (active) |
| CN1CCN(c2cccc(Nc3nc4c(-c5ccc(S(C)(=O)=O)cc5)cccn4n3)c2)CC1 | 20.9 µM (active) |
| c1cc(N[C@@H]2CCNC2)nc(-c2cnc3ccc(-c4cn[nH]c4)cn23)c1 | 16.6 µM (active) |
| Cc1ccc(S(=O)(=O)Nc2nc3ccccc3nc2Nc2ccc3nsnc3c2)cc1 | inactive |
| COc1cccc2c1c(O)c(C(=O)N(C)c1ccc(C(F)(F)F)cc1)c(=O)n2C | inactive |
| NC(=O)N1CCC(CC(=O)N2CCC([C@H]3c4ncc(Br)cc4CCc4cc(Cl)cc(Br)c43)CC2)CC1 | 23.5 µM (active) |
| NC(CO)(CO)CCc1ccc(Sc2cccc(OCc3ccccc3)c2)cc1Cl | 9.34 µM (active) |
| Nc1nc(OCc2ccccc2)c2[nH]cnc2n1 | inactive |
| COCc1c(-c2ccc(NC(=O)Nc3cc(C(F)(F)F)ccc3F)c(F)c2)c2c(N)ncnn2c1CN1CCOCC1 | 6.61 µM (active) |
| CC#C[C@@H](CC(=O)O)c1ccc(OCc2cccc(-c3ccc(C(F)(F)F)cc3)c2)cc1 | inactive |
| Clc1ccc(C(c2ccc(Cl)cc2)n2cc[n+](CC(OCc3ccc(Cl)cc3Cl)c3ccc(Cl)cc3Cl)c2)cc1 (stereo unspecified) | 2.63 µM (active) |
| N#Cc1ccc(N(Cc2ccc(Br)cc2)n2cnnc2)cc1 | inactive |
| C[C@](Cc1c[nH]c2ccccc12)(NC(=O)OC1C2CC3CC(C2)CC1C3)C(=O)NC[C@H](NC(=O)CCC(=O)O)c1ccccc1 (stereo partly specified) | inactive |
